Run description: Aqueous solubility of the compound at pH 7.4 after 30 mins by nephelometric analysis
Assay type: physicochemical
Measurement parameters: buffer
Binary classification by solubility kinetic at 0.5 h, with 60 µM as an inclusive lower bound for rule met; all other cases are rule not met.

# example entries with known answers
Compound: COc1ccc(OC[C@@H]2c3cccn3CC(=O)N2Cc2cccc(F)c2)cc1
Assigned label: rule met
--
Compound: COc1ccc(OC[C@H]2c3cccn3CCN2C(=O)c2cccc(Cl)c2)cc1
Assigned label: rule not met
--
Compound: COc1ccc(OCC2c3cccn3CCN2C(=O)c2cccc(C(F)(F)F)c2)cc1 (stereo not drawn)
Assigned label: rule not met
--
Compound: COc1ccc(OC[C@H]2c3cccn3CC(=O)N2Cc2cccc(F)c2)cc1
Assigned label: rule met
--
Compound: COc1ccc(OC[C@@H]2c3cccn3CCN2C(=O)c2cccc(Cl)c2)cc1
Assigned label: rule not met
--
Compound: COc1ccc(OCC2c3cccn3CC(=O)N2Cc2cccc(F)c2)cc1 (stereo not drawn)
Assigned label: rule met
--
Compound: COc1ccc(OCC2c3sccc3CCN2C(=O)c2cccc(Cl)c2)cc1 (stereo not drawn)
Assigned label: rule not met
--
Compound: COc1ccc(OCC2c3cccn3CC(=O)N2Cc2cccc(C(F)(F)F)c2)cc1 (stereo not drawn)
Assigned label: rule not met
--
Compound: COc1ccc(OC[C@H]2c3cccn3CCN2C(=O)c2cccc(C(F)(F)F)c2)cc1
Assigned label: rule not met
--
Compound: COc1ccc(OC[C@@H]2c3cccn3CCN2C(=O)c2cccc(C(F)(F)F)c2)cc1
Assigned label: rule not met

Hi team, for COc1ccc(OCC2c3cccn3CCN2C(=O)c2cccc(Cl)c2)cc1 (stereo not drawn) , is the recorded solubility kinetic at 0.5 h at or above 60 µM?
rule not met

Hi team, for COc1ccc(OC[C@H]2c3cccn3CC(=O)N2Cc2cccc(C(F)(F)F)c2)cc1 , is the recorded solubility kinetic at 0.5 h at or above 60 µM?
rule not met

Hi team, for COc1ccc(OC[C@@H]2c3cccn3CC(=O)N2Cc2cccc(C(F)(F)F)c2)cc1 , is the recorded solubility kinetic at 0.5 h at or above 60 µM?
rule not met

* * *

Run description: Cmax in C57Bl/6 mouse at 20 mg/kg, ip by LC/MS/MS analysis
Format: ADME, organism-based
Parameters: dose 20 mg/kg, route intraperitoneal
Measurement parameters: in vivo
Assay metric: Cmax (nM)
Record the value in nM, omitting the unit from your answer.

What measured Cmax goes with COc1ccc(OCC2c3cc(OC)c(OC)cc3CCN2C(=O)c2cccc(Cl)c2)cc1 (stereo unspecified) ?
2160

* * *

Assay system: Ionotropic glutamate receptor NMDA 1/2D (Rattus norvegicus) (UniProt P35439+Q62645)
Run description: Positive allosteric modulation of recombinant rat GluN1a/GluN2D receptor expressed in Xenopus laevis oocytes assessed as increase in glycine/L-glutamate-induced channel current at 30 uM by two-electrode voltage clamp method relative to control
Format: cell-based
# if measured %max < 400%: yes (1)  # else: no (0)

Item COCCOCCN1C(=O)Cc2cc(OC)ccc2C1COc1ccc(OC)cc1 (stereo unspecified) : %max beneath 400%, strictly?
yes (1)

Item COc1ccc(OCC2c3sc(C)nc3CCN2C(=O)c2cccc(Cl)c2)cc1 (stereo unspecified) : %max beneath 400%, strictly?
yes (1)

Item COc1ccc(OCC2c3ccccc3CCN2C(=O)c2cccc(Cl)c2)cc1 (stereo unspecified) : %max beneath 400%, strictly?
yes (1)

Item COc1ccc(OC[C@H]2c3cccn3CC(=O)N2Cc2cccc(C(F)(F)F)c2)cc1 : %max beneath 400%, strictly?
yes (1)

Item COc1ccc(OCC2c3cc(OC)c(OC)cc3CCN2C(=O)c2cccc(Cl)c2)s1 (stereo unspecified) : %max beneath 400%, strictly?
yes (1)

Item COc1ccc(OCC2c3cccn3CCN2C(=O)c2cccc(C(F)(F)F)c2)cc1 (stereo unspecified) : %max beneath 400%, strictly?
yes (1)

Item COc1cc2c(cc1OC)C(COc1ccccn1)N(C(=O)c1cccc(C(F)(F)F)c1)CC2 (stereo unspecified) : %max beneath 400%, strictly?
yes (1)

Data origin, for the record: ChEMBL document CHEMBL4627400
